system: LoVo; experiment: Antiproliferative activity against human LoVo cells assessed as cell-growth inhibition after 48 hrs by MTT assay; format: functional, cell-based
Item-by-item account of IC50
Measured quantity: IC50 (µM)

CC(C)(O)CCC[C@@](C)(O)[C@H]1CC[C@]2(C)[C@@H]1[C@H](OC(=O)CCl)C[C@@H]1[C@@]3(C)CC[C@H](OC(=O)CCl)C(C)(C)[C@@H]3CC[C@]12C: 41
CC(C)(CCC[C@@](C)(O)[C@H]1CC[C@]2(C)[C@@H]1[C@H](O)C[C@@H]1[C@@]3(C)CC[C@H](OC(=O)CCl)C(C)(C)[C@@H]3CC[C@]12C)OC(=O)CCl: 58.1
C/C(=C/CCC(C)(C)O)[C@H]1CC[C@]2(C)[C@@H]1[C@H](OC(=O)CCl)C[C@@H]1[C@@]3(C)CC[C@H](O)C(C)(C)[C@@H]3CC[C@]12C: 31
CC(C)(O)CCC[C@@](C)(O)[C@H]1CC[C@]2(C)[C@@H]1[C@H](OC(=O)CCl)C[C@@H]1[C@@]3(C)CC[C@H](O)C(C)(C)[C@@H]3CC[C@]12C: 31.1
CC(C)(O)CCC[C@@](C)(O)[C@H]1CC[C@]2(C)[C@@H]1[C@H](O)C[C@@H]1[C@@]3(C)CC[C@H](OC(=O)CCl)C(C)(C)[C@@H]3CC[C@]12C: 45.8
C/C(=C/CCC(C)(C)OC(=O)CCl)[C@H]1CC[C@]2(C)[C@@H]1[C@H](O)C[C@@H]1[C@@]3(C)CC[C@H](OC(=O)CCl)C(C)(C)[C@@H]3CC[C@]12C: 1.3
CC(C)(CCC[C@@](C)(OC(=O)CCl)[C@H]1CC[C@]2(C)[C@@H]1[C@H](O)C[C@@H]1[C@@]3(C)CC[C@H](O)C(C)(C)[C@@H]3CC[C@]12C)OC(=O)CCl: 61.2
O=c1[nH]cc(F)c(=O)[nH]1 [FLUOROURACIL]: 12.7
CC(=O)O[C@@H]1C[C@@H]2[C@@]3(C)CC[C@H](O)C(C)(C)[C@@H]3CC[C@@]2(C)[C@]2(C)CC[C@H]([C@](C)(O)CCCC(C)(C)O)[C@@H]12: 36.7
C/C(=C/CCC(C)(C)O)[C@H]1CC[C@]2(C)[C@@H]1[C@H](OC(=O)CCl)C[C@@H]1[C@@]3(C)CC[C@H](OC(=O)CCl)C(C)(C)[C@@H]3CC[C@]12C: 1.7
CC(=O)O[C@H]1CC[C@]2(C)[C@H]3C[C@@H](O)[C@@H]4[C@@H]([C@](C)(O)CCCC(C)(C)O)CC[C@@]4(C)[C@]3(C)CC[C@H]2C1(C)C: 44.9
C=C(CCCC(C)(C)O)[C@H]1CC[C@]2(C)[C@@H]1[C@H](O)C[C@@H]1[C@@]3(C)CC[C@H](OC(=O)CCl)C(C)(C)[C@@H]3CC[C@]12C: 19.1
C=C(CCCC(C)(C)O)[C@H]1CC[C@]2(C)[C@@H]1[C@H](OC(=O)CCl)C[C@@H]1[C@@]3(C)CC[C@H](OC(=O)CCl)C(C)(C)[C@@H]3CC[C@]12C: 2.1
C=C(CCCC(C)(C)OC(=O)CCl)[C@H]1CC[C@]2(C)[C@@H]1[C@H](O)C[C@@H]1[C@@]3(C)CC[C@H](O)C(C)(C)[C@@H]3CC[C@]12C: 40
CC(=O)O[C@H]1CC[C@]2(C)[C@H]3C[C@@H](OC(C)=O)[C@@H]4[C@@H]([C@](C)(O)CCCC(C)(C)O)CC[C@@]4(C)[C@]3(C)CC[C@H]2C1(C)C: 35.6
C=C(CCCC(C)(C)O)[C@H]1CC[C@]2(C)[C@@H]1[C@H](OC(=O)CCl)C[C@@H]1[C@@]3(C)CC[C@H](O)C(C)(C)[C@@H]3CC[C@]12C: 23.5
CC(C)(O)CCC[C@@](C)(O)[C@H]1CC[C@]2(C)[C@@H]1[C@H](O)C[C@@H]1[C@@]3(C)CC[C@H](O)C(C)(C)[C@@H]3CC[C@]12C: 46.7
